Recorded DC50, one value per entry.
Target: BTK (Homo sapiens)
Construct: endogenous in cells; host or cells: TMD8 cells
Test: Cellular BTK HTRF assay (BTK degradation) in TMD8 cells
Format: cell-based
Conditions: four hours incubation, Total-BTK HTRF relative to DMSO-treated cells

Sample records with DC50:
{"columns": ["compound", "DC50"],
 "data": [
  ["NC(=O)c1ncc(N2CCCC3(COC3)C2)nc1Nc1ccc(C2CCN(C[C@H]3CCN(c4ccc5c(c4)C(=O)N(C4CCC(=O)NC4=O)C5=O)C3)CC2)cc1 (some centres unmarked) [Compound 126]", "< 5 nM"],
  ["CN1CCN([C@H]2CCCN(c3cnc(C(N)=O)c(Nc4cnn(C5CCN(CC6CN(c7ccc8c(c7)C(=O)N(C7CCC(=O)NC7=O)C8=O)C6)CC5)c4)n3)C2)C1=O (some centres unmarked) [Compound 78]", "< 5 nM"],
  ["Cn1cc(Nc2nc(N3CCC[C@@H](N4CC5(CN(CC6CCN(c7ccc8c(=O)n(C9CCC(=O)NC9=O)ccc8c7)CC6)C5)OC4=O)C3)cnc2C(N)=O)cn1 (some centres unmarked) [Compound 147]", "< 5 nM"],
  ["Cc1ncsc1-c1ccc([C@H](C)NC(=O)[C@@H]2C[C@@H](O)CN2C(=O)[C@@H](NC(=O)CCCCCCCC(=O)N2CCC(c3ccc(Nc4nc(N5CCC[C@@H](N6CCN(C)C6=O)C5)cnc4C(N)=O)cc3)CC2)C(C)(C)C)cc1 [Compound 188]", "> 15 nM"],
  ["CN1CCN([C@@H]2CCCN(c3cnc(C(N)=O)c(Nc4ccc(N5CC6CN(Cc7ccc8c(c7)C(=O)N(C7CCC(=O)NC7=O)C8=O)CC6C5)cc4)n3)C2)C1=O (some centres unmarked) [Compound 76]", "5 to 15 nM"]
]}

If you can, please state the reported DC50 value of CN1CCN([C@@H]2CCCN(c3cnc(C(N)=O)c(Nc4ccc(C5(C)CCN(c6ccc7c(c6)C(=O)N(C6CCC(=O)NC6=O)C7=O)CC5)cc4)n3)C2)C1=O (some centres unmarked) [Compound 58] .
5 to 15 nM

If you can, please state the reported DC50 value of Cn1cc(Nc2nc(N3CCC[C@@H](N4CCC5(CN(CC6CCN(c7ccc8c(=O)n(C9CCC(=O)NC9=O)ccc8c7)CC6)C5)C4=O)C3)cnc2C(N)=O)cn1 (some centres unmarked) [Compound 145] .
< 5 nM

If you can, please state the reported DC50 value of CN1CCN([C@@H]2CCCN(c3cnc(C(N)=O)c(Nc4ccc(N5CCN(C[C@H]6CCN(c7ccc8c(c7)C(=O)N(C7CCC(=O)NC7=O)C8=O)C6)CC5)cn4)n3)C2)C1=O (some centres unmarked) [Compound 89] .
5 to 15 nM

---

Target: BTK (Homo sapiens)
Construct: endogenous in cells; host or cells: TMD8 cells
Experiment: Cellular BTK HTRF assay (BTK degradation) in TMD8 cells
Format: cell-based
Conditions: four hours incubation, Total-BTK HTRF relative to DMSO-treated cells
Protocol: Example 66: BTK Degradation Assay TMD8 cells were obtained from Tokyo Medical and Dental University and were grown in alpha-MEM (Fisher 12571063) supplemented with 10% heat-inactivated FBS (Corning Premium Fetal Bovine Serum from Fisher, MT35015CV). Compounds of the present invention were added to 50,000 TMD8 cells in round-bottom 96 well plates with a final DMSO concentration of […] and were incubated at 37° C. […] Readouts were reported as HTRF levels relative to HTRF levels of DMSO-treated cells. […]
measurementKind: DC50

Sample records with DC50:
{"columns": ["compound", "studySystem", "measurementKind", "reportedValue"],
 "data": [
  ["CN1CCN([C@@H]2CCCN(c3cnc(C(N)=O)c(Nc4ccc(C5CCN(C(=O)CCOCCNc6cccc7c6C(=O)N(C6CCC(=O)NC6=O)C7=O)CC5)cc4)n3)C2)C1=O (some centres unmarked)", "BTK (Homo sapiens)", "DC50", "5 to 15 nM"],
  ["Cn1c(=O)n(C2CCC(=O)NC2=O)c2ccc(N3CCC(CN4CCC(c5ccc(Nc6nc(N7CCCCC7)cnc6C(N)=O)cc5)CC4)CC3)cc21 (centres unmarked)", "BTK (Homo sapiens)", "DC50", "< 5 nM"],
  ["NC(=O)c1ncc(-n2ccc(C(F)(F)F)n2)nc1Nc1ccc(C2CCN(CC3CCN(c4ccc5c(=O)n(C6CCC(=O)NC6=O)ccc5c4)CC3)CC2)cc1 (centres unmarked)", "BTK (Homo sapiens)", "DC50", "> 15 nM"],
  ["CN1CCN([C@@H]2CCCN(c3cnc(C(N)=O)c(Nc4ccc(C5CCN(CC6CCN(c7ccc(N(C)C8CCC(=O)NC8=O)cn7)CC6)CC5)cc4)n3)C2)C1=O (some centres unmarked)", "BTK (Homo sapiens)", "DC50", "> 15 nM"],
  ["CN1CCN([C@H]2CCCN(c3cnc(C(N)=O)c(Nc4ccc(C5(C)CCN(C6CN(c7ccc8c(c7)C(=O)N(C7CCC(=O)NC7=O)C8=O)C6)CC5)cc4)n3)C2)C1=O (some centres unmarked)", "BTK (Homo sapiens)", "DC50", "< 5 nM"]
]}

Short answer please: DC50, BTK (Homo sapiens), entry CN(c1ccc(N2CCC(CN3CCC(c4ccc(Nc5nc(N6CCCCC6)cnc5C(N)=O)cc4)CC3)CC2)nc1)C1CCC(=O)NC1=O (centres unmarked)
5 to 15 nM

Short answer please: DC50, BTK (Homo sapiens), entry Cn1cc(Nc2nc(N3CCC[C@H](N4CC5(CN(CC6CCN(c7ccc(NC8CCC(=O)NC8=O)nc7)CC6)C5)OC4=O)C3)cnc2C(N)=O)cn1 (some centres unmarked)
< 5 nM

Short answer please: DC50, BTK (Homo sapiens), entry NC(=O)c1ncc(N2CCC[C@@H](N3CCCC3=O)C2)nc1Nc1ccc(N2CC(C3CCN(c4ccc5c(c4)C(=O)N(C4CCC(=O)NC4=O)C5=O)CC3)C2)nc1 (some centres unmarked)
< 5 nM

Short answer please: DC50, BTK (Homo sapiens), entry CN1CCN([C@@H]2CCCN(c3cnc(C(N)=O)c(Nc4ccc(C5(C)CCN(C(=O)CCCN6CCN(c7ccc8c(c7)C(=O)N(C7CCC(=O)NC7=O)C8=O)CC6)CC5)cc4)n3)C2)C1=O (some centres unmarked)
< 5 nM

Short answer please: DC50, BTK (Homo sapiens), entry CN1CCN([C@@H]2CCCN(c3cnc(C(N)=O)c(Nc4ccc(C5CCN(C6CN(Cc7ccc8c(c7)CN(C7CCC(=O)NC7=O)C8=O)C6)CC5)cc4)n3)C2)C1=O (some centres unmarked)
< 5 nM

Short answer please: DC50, BTK (Homo sapiens), entry CN1CCN([C@@H]2CCCN(c3cnc(C(N)=O)c(Nc4ccc(C5(C)CCN(C(=O)CCOCCNc6cccc7c6C(=O)N(C6CCC(=O)NC6=O)C7=O)CC5)cc4)n3)C2)C1=O (some centres unmarked)
5 to 15 nM

---

Molecular target: BTK (Homo sapiens, UniProt Q06187)
Construct: endogenous in cells; host or cells: TMD8 cells
Sequence (Q06187 whole entry): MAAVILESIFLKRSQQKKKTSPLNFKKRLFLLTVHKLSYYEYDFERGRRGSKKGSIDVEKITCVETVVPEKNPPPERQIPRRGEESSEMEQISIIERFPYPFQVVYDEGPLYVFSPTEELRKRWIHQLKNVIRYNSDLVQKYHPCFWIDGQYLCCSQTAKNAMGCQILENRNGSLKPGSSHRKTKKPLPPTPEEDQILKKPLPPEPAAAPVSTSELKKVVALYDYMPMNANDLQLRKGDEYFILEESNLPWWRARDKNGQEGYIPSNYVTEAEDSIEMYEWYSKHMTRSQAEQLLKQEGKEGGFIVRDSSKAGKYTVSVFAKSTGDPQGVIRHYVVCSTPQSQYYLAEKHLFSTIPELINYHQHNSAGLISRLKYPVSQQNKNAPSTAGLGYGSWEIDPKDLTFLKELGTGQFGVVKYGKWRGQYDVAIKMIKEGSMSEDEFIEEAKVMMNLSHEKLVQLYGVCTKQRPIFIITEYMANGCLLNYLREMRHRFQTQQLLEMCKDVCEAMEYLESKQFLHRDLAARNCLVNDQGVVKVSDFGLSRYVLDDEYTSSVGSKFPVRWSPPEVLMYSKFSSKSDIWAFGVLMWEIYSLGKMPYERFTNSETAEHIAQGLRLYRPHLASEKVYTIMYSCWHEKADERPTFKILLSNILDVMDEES
Test: Cellular BTK HTRF assay (BTK degradation) in TMD8 cells
Type: cell-based
Conditions: four hours incubation, Total-BTK HTRF relative to DMSO-treated cells
Method: Example 66: BTK Degradation Assay TMD8 cells were obtained from Tokyo Medical and Dental University and were grown in alpha-MEM (Fisher 12571063) supplemented with 10% heat-inactivated FBS (Corning Premium Fetal Bovine Serum from Fisher, MT35015CV). Compounds of the present invention were added to 50,000 TMD8 cells in round-bottom 96 well plates with a final DMSO concentration of […] and were incubated at 37° C. […] Readouts were reported as HTRF levels relative to HTRF levels of DMSO-treated cells. […]
measurementKind: DC50

Sample records with DC50:
{"columns": ["molecule", "DC50"],
 "data": [
  ["CN1CCN([C@@H]2CCCN(c3cnc(C(N)=O)c(Nc4ccc(C5CCN(c6ccc7c(c6)C(=O)N(C6CCC(=O)NC6=O)C7=O)CC5)cc4)n3)C2)C1=O (stereo partly drawn)", "< 5 nM"],
  ["CN1CCN([C@@H]2CCCN(c3cnc(C(N)=O)c(Nc4ccc(C5(C)CCN(C(=O)CN6CCN(CCCc7cccc8c7C(=O)N(C7CCC(=O)NC7=O)C8=O)CC6)CC5)cc4)n3)C2)C1=O (stereo partly drawn)", "5 to 15 nM"],
  ["NC(=O)c1ncc(N2CCC(CO)CC2)nc1Nc1ccc(C2CCN(C[C@@H]3CCN(c4ccc5c(c4)C(=O)N(C4CCC(=O)NC4=O)C5=O)C3)CC2)cc1 (stereo partly drawn)", "< 5 nM"],
  ["CN1CCN([C@H]2CCCN(c3cnc(C(N)=O)c(Nc4ccc(N5CCN(CCCCc6cccc7c6CN(C6CCC(=O)NC6=O)C7=O)CC5)cn4)n3)C2)C1=O (stereo partly drawn)", "> 15 nM"]
]}

In the following, a different molecule is considered.
Short answer please: DC50, BTK (Homo sapiens, UniProt Q06187), entry NC(=O)c1ncc(-n2ccc(C(F)(F)F)n2)nc1Nc1ccc(C2CCN(C[C@H]3CCN(c4ccc5c(c4)C(=O)N(C4CCC(=O)NC4=O)C5=O)C3)CC2)cc1 (stereo partly drawn)
> 15 nM
